- System: MS2 coat protein
- protocol: apparent KD of MS2 coat protein; designed switch direction (-1 OFF switch, 1 ON switch): -1; higher = weaker reporter binding
- condition_description: Eterna round: R95; input ligand: microRNA oligo, concentration not stated
Parameter: apparent KD of MS2 coat protein. Scope: all listed entries.

GAAAAGUGAGGAUAUGGUAAAAGAAAAAGAAAAAGAAAACUCCAGAAGGCACAUGAGGAUCACCCAUGUGAAAG [salish99_ex4_r3_006] (puzzle: Exclusion 4)
16.2 nM
CUAGAUCUUCGGAUCUAGUACAUGAGGAUCACCCAUGUGACGAGUAUAUCCUCAAACAAGCUUUUUGCUCGUCUUAU [Sensor v3 - Turn-off variant 1 - 21] (puzzle: Sensor v3, turn-off variant 1)
237 nM
CCGCAUAAGCAGGAUAUCGUAUCGGAUACGAUACGAGAAGGGUUUACAUGAGGAUCACCCAUGUUCCUUAGCGG [Fiskers Ex 6 - 31] (puzzle: Exclusion 6)
26.2 nM
UAGUAUAUCUAUGGGAGUAACAUGAGGAUCACCCAUGUAUGUCUUGUUUUUUGUUCGUCAUAGGCCGGUUGAACGGU [JR_SV3TOV1_Sub027] (puzzle: Sensor v3, turn-off variant 1)
27.7 nM
GGCAAUAUGUAGGAUAUCGUAUCGGAAACGAUACGAGAAGGGCAAACAUGAGGAUCACCCAUGUUCUUCAAGCC [Fiskers Ex 6 - 11] (puzzle: Exclusion 6)
15.6 nM
GAAAAGGUAGGAUAUACGAAGAAAAAGGGUAGAAAAAAAACACAUGAGGAUCACCCAUGUAGAAGGACCAAAAG [salish99_ex2_r3_028] (puzzle: Exclusion 2)
23.8 nM
ACAAGCUUUUUGUUCGUCUUAUACACUCCUAAGAGGACAACAUGAGGAUCACCCAUGUAACAAAGACGGACUCAUGU [Sesor Array 11 - Jieux - Sensor v3, turn-off variant 2] (puzzle: Sensor v3, turn-off variant 2)
129 nM
AUAUAGUCAGGAUAUCGAAGUGUGUGUUGGUUUGUAAUUUACGAGAAGGGACAUGAGGAUCACCCAUGUAGGAA [JR_Exclusion4)Sub002] (puzzle: Exclusion 4)
35.8 nM

apparent KD of MS2 coat protein recorded for this sequence, UUCAUGUGAGGAUAUGUGUACUGCUUUCUGUUUAGAUGUACACAGAAGGCACAUGAGGAUCACCCAUGUAGUAC [Ex4 - 3 - 31] (puzzle: Exclusion 4) , is 33.8 nM

Measured apparent KD of MS2 coat protein, GUGCGGUGAGGAUAUACGUAGGUGAAAAUCUGUGUGUUCCUACAUGAGGAUCACCCAUGUAGAAGGCAUGGCAC [LRO-Excl2-13] (puzzle: Exclusion 2) : 90.5 nM

Note to self: apparent KD of MS2 coat protein recorded for AAACAGGGAGGAUAUACAUAGAUCGUCUAACCUAAUUGGUCACAUGAGGAUCACCCAUGUAGAAGGCCCUUAGG [Tiisdixe] (puzzle: Exclusion 2) was 22.2 nM

Just so you know, measured apparent KD of MS2 coat protein for AGUACUAACACGCUUGUGUUAGUACAAUAAGCUUGUGAAACAUGAGGAUCACCCAUGUCCUCAUAAGCUCGUCUUAU [salish99_TOv2_r3_072] (puzzle: Sensor v3, turn-off variant 2) came out at 654 nM
